# Assay details: Inhibition of recombinant Escherichia coli OXA-10 assessed as reduction in breakdown of cephalosporin FC-5 in presence of 100 mM NaHCO3 by fluorescence method
Reported property: IC50

Asked: For the compound `O=C(O)C[C@@H]1CC[C@H](NC(=O)Cc2cccs2)B(O)O1` , what IC50 is on record?
Given back: > 400 µM
